experiment: Cmax in Sprague-Dawley rat portal vein blood at 10 mg/kg, po; assay type: ADME, organism-based; parameters: dose 10 mg/kg, route oral
Recorded endpoint: Cmax

Reference set (2 entries):
input_smiles=CCCC[C@]1(CC)CS(=O)(=O)c2cc(CN[C@@H](CO)C(=O)O)c(OC)cc2[C@@H](c2ccccc2)N1 recorded_endpoint=Cmax result="12 ng/mL"
input_smiles=CCCC[C@]1(CC)CS(=O)(=O)c2cc(OCCCP(=O)(O)O)c(OC)cc2[C@@H](c2ccccc2)N1 recorded_endpoint=Cmax result="260 ng/mL"

Please give Cmax, item by item, for the list that follows.
1. CCCC[C@]1(CC)CS(=O)(=O)c2cc(CN(CC(=O)O)CC(=O)O)c(OC)cc2[C@@H](c2ccccc2)N1
2. CCCC[C@]1(CC)CS(=O)(=O)c2cc(C(=O)NCS(=O)(=O)O)c(OC)cc2[C@@H](c2ccccc2)N1
3. CCCC[C@]1(CC)CS(=O)(=O)c2cc(CNCC(=O)O)c(OC)cc2[C@@H](c2ccccc2)N1

stdout:
["56 ng/mL", "92 ng/mL", "27 ng/mL"]

---

So I've got a bunch of compounds here, and I need their Papp at 1 h, 3 µM values.
assay: Apparent permeability in MDCK cells expressing MDR1 at 3 uM after 60 mins by LC-MS/MS analysis; type: ADME, cell-based, Canis lupus familiaris; conditions: dog
One number for each entry, in ×10⁻⁶ cm/s.

Examples from the recorded data:
input_smiles=CCCC[C@]1(CC)CS(=O)(=O)c2cc(CN[C@H](CC(=O)O)C(=O)O)c(OC)cc2[C@@H](c2ccccc2)N1 recorded_endpoint="Papp at 1 h, 3 µM" quantitative_readout=0.7
input_smiles=CCCC[C@]1(CC)CS(=O)(=O)c2cc(CCC(=O)NCS(=O)(=O)O)c(OC)cc2[C@@H](c2ccccc2)N1 recorded_endpoint="Papp at 1 h, 3 µM" quantitative_readout=0.7
input_smiles=CCCC[C@]1(CC)CS(=O)(=O)c2cc(OCCP(=O)(O)O)c(OC)cc2[C@@H](c2ccccc2)N1 recorded_endpoint="Papp at 1 h, 3 µM" quantitative_readout=0.8

API: the following record is the query input.
stdin: May I ask what Papp at 1 h, 3 µM has been recorded for CCCC[C@]1(CC)CS(=O)(=O)c2cc(CCCS(=O)(=O)O)c(OC)cc2[C@@H](c2ccccc2)N1 ?
stdout: 0.7

---

target: Ileal sodium/bile acid cotransporter (Mus musculus); test: Inhibition of mouse ASBT expressed in HEK293 cells assessed as inhibition of [3H]-taurocholate uptake after 90 mins by scintillation counting analysis
Sequence (P70172 whole entry): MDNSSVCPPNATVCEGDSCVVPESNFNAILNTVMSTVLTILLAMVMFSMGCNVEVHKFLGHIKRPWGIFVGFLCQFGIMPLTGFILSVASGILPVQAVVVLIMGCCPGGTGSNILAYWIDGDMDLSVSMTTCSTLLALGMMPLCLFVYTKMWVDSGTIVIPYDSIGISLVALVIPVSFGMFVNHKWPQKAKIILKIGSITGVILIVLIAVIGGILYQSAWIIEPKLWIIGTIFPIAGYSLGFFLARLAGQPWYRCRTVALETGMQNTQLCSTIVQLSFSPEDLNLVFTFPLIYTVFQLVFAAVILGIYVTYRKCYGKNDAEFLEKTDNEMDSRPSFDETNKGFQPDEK
Recorded endpoint: IC50 (nM)
Answers are plain numbers, in nM.

Solved entries (count: 3):
compound=CCCC[C@]1(CC)CS(=O)(=O)c2cc(CP(=O)(O)O)c(OC)cc2[C@@H](c2ccccc2)N1 tested_target="Ileal sodium/bile acid cotransporter (Mus musculus)" endpoint_unit=nM quantitative_readout=0.5
compound=CCCC[C@]1(CC)CS(=O)(=O)c2cc(OC)c(OC)cc2[C@@H](c2ccccc2)N1 tested_target="Ileal sodium/bile acid cotransporter (Mus musculus)" endpoint_unit=nM quantitative_readout=3
compound="CCCC[C@]1(CC)CS(=O)(=O)c2cc(CNC(CC(=O)O)CC(=O)O)c(OC)cc2[C@@H](c2ccccc2)N1 [LINERIXIBAT]" tested_target="Ileal sodium/bile acid cotransporter (Mus musculus)" endpoint_unit=nM quantitative_readout=2.1

Report IC50 for every entry below.
1. CCCC[C@]1(CC)CS(=O)(=O)c2cc(CNCCS(=O)(=O)O)c(OC)cc2[C@@H](c2ccccc2)N1
2. CCCC[C@]1(CC)CS(=O)(=O)c2cc(CNCC(=O)O)c(OC)cc2[C@@H](c2ccccc2)N1

stdout:
[0.9, 0.3]

---

experiment: Cmax in Sprague-Dawley rat portal vein blood at 10 mg/kg, po; type: ADME, organism-based; parameters: dose 10 mg/kg, route oral
Record form. Attribute: Cmax. Fill in for each entry.
Numbers only, in ng/mL.

Observe how each entry below is paired with its result.
input_smiles=CCCC[C@]1(CC)CS(=O)(=O)c2cc(CNCCS(=O)(=O)O)c(OC)cc2[C@@H](c2ccccc2)N1 recorded_endpoint=Cmax endpoint_unit=ng/mL quantitative_readout=7
input_smiles=CCCC[C@]1(CC)CS(=O)(=O)c2cc(CS(=O)(=O)O)c(OC)cc2[C@@H](c2ccccc2)N1 recorded_endpoint=Cmax endpoint_unit=ng/mL quantitative_readout=170
input_smiles=CCCC[C@]1(CC)CS(=O)(=O)c2cc(CN[C@H](CC(=O)O)C(=O)O)c(OC)cc2[C@@H](c2ccccc2)N1 recorded_endpoint=Cmax endpoint_unit=ng/mL quantitative_readout=11
input_smiles=CCCC[C@]1(CC)CS(=O)(=O)c2cc(OC)c(OC)cc2[C@@H](c2ccccc2)N1 recorded_endpoint=Cmax endpoint_unit=ng/mL quantitative_readout=100
input_smiles=CCCC[C@]1(CC)CS(=O)(=O)c2cc(OCCP(=O)(O)O)c(OC)cc2[C@@H](c2ccccc2)N1 recorded_endpoint=Cmax endpoint_unit=ng/mL quantitative_readout=82
input_smiles=CCCC[C@]1(CC)CS(=O)(=O)c2cc(CP(=O)(O)O)c(OC)cc2[C@@H](c2ccccc2)N1 recorded_endpoint=Cmax endpoint_unit=ng/mL quantitative_readout=14
input_smiles=CCCC[C@]1(CC)CS(=O)(=O)c2cc(OCCCS(=O)(=O)O)c(OC)cc2[C@@H](c2ccccc2)N1 recorded_endpoint=Cmax endpoint_unit=ng/mL quantitative_readout=289

// below: Cmax requested for another compound
stdin: Requested field: Cmax. Item: CCCC[C@]1(CC)CS(=O)(=O)c2cc(C(CC(=O)O)CC(=O)O)c(OC)cc2[C@@H](c2ccccc2)N1
stdout: 333

---

For each of the compounds below, state its Papp at 1 h, 3 µM.
experiment: Apparent permeability in MDCK cells expressing MDR1 at 3 uM after 60 mins by LC-MS/MS analysis; format: ADME, cell-based, Canis lupus familiaris; conditions: dog
Give bare numbers, in ×10⁻⁶ cm/s.

Worked examples follow.
input_smiles=CCCC[C@]1(CC)CS(=O)(=O)c2cc(CCP(=O)(O)O)c(OC)cc2[C@@H](c2ccccc2)N1 recorded_endpoint="Papp at 1 h, 3 µM" quantitative_readout=1.2
input_smiles=CCCC[C@]1(CC)CS(=O)(=O)c2cc(OCC(=O)O)c(OC)cc2[C@@H](c2ccccc2)N1 recorded_endpoint="Papp at 1 h, 3 µM" quantitative_readout=1
input_smiles=CCCC[C@]1(CC)CS(=O)(=O)c2cc(CN[C@@H](CO)C(=O)O)c(OC)cc2[C@@H](c2ccccc2)N1 recorded_endpoint="Papp at 1 h, 3 µM" quantitative_readout=0.5
input_smiles=CCCC[C@]1(CC)CS(=O)(=O)c2cc(CN(C)CC(=O)O)c(OC)cc2[C@@H](c2ccccc2)N1 recorded_endpoint="Papp at 1 h, 3 µM" quantitative_readout=1
input_smiles=CCCC[C@]1(CC)CS(=O)(=O)c2cc(OC)c(OC)cc2[C@@H](c2ccccc2)N1 recorded_endpoint="Papp at 1 h, 3 µM" quantitative_readout=10.7
input_smiles=CCCC[C@]1(CC)CS(=O)(=O)c2cc(OCCS(=O)(=O)O)c(OC)cc2[C@@H](c2ccccc2)N1 recorded_endpoint="Papp at 1 h, 3 µM" quantitative_readout=1.2
input_smiles=CCCC[C@]1(CC)CS(=O)(=O)c2cc(CNC(=O)CS(=O)(=O)O)c(OC)cc2[C@@H](c2ccccc2)N1 recorded_endpoint="Papp at 1 h, 3 µM" quantitative_readout=1.9
input_smiles=CCCC[C@]1(CC)CS(=O)(=O)c2cc(CCC(=O)NCC(=O)O)c(OC)cc2[C@@H](c2ccccc2)N1 recorded_endpoint="Papp at 1 h, 3 µM" quantitative_readout=1.2

Give Papp at 1 h, 3 µM for each of the items listed below.
1. CCCC[C@]1(CC)CS(=O)(=O)c2cc(OCCCS(=O)(=O)O)c(OC)cc2[C@@H](c2ccccc2)N1
2. CCCC[C@]1(CC)CS(=O)(=O)c2cc(CS(=O)(=O)O)c(OC)cc2[C@@H](c2ccccc2)N1
3. CCCC[C@]1(CC)CS(=O)(=O)c2cc(C(=O)NCCS(=O)(=O)O)c(OC)cc2[C@@H](c2ccccc2)N1
4. CCCC[C@]1(CC)CS(=O)(=O)c2cc(CN[C@@H](CC(=O)O)C(=O)O)c(OC)cc2[C@@H](c2ccccc2)N1
5. CCCC[C@]1(CC)CS(=O)(=O)c2cc(CNCCS(=O)(=O)O)c(OC)cc2[C@@H](c2ccccc2)N1
6. CCCC[C@]1(CC)CS(=O)(=O)c2cc(CN(CCS(=O)(=O)O)CCS(=O)(=O)O)c(OC)cc2[C@@H](c2ccccc2)N1
7. CCCC[C@]1(CC)CS(=O)(=O)c2cc(CP(=O)(O)O)c(OC)cc2[C@@H](c2ccccc2)N1

stdout:
[0.8, 0.9, 0.4, 0.6, 1, 0.8, 0.7]

stdin: Report Papp at 1 h, 3 µM for CCCC[C@]1(CC)CS(=O)(=O)c2cc(CCCC(=O)O)c(OC)cc2[C@@H](c2ccccc2)N1 please.
stdout: 34.2
